Target system: T1, recombinant AdV5 hexon protein (Human adenovirus C serotype 5 (HAdV-5), UniProt P04133)
T1 construct: source: bought: AbD Serotech
T1 sequence (P04133 whole entry): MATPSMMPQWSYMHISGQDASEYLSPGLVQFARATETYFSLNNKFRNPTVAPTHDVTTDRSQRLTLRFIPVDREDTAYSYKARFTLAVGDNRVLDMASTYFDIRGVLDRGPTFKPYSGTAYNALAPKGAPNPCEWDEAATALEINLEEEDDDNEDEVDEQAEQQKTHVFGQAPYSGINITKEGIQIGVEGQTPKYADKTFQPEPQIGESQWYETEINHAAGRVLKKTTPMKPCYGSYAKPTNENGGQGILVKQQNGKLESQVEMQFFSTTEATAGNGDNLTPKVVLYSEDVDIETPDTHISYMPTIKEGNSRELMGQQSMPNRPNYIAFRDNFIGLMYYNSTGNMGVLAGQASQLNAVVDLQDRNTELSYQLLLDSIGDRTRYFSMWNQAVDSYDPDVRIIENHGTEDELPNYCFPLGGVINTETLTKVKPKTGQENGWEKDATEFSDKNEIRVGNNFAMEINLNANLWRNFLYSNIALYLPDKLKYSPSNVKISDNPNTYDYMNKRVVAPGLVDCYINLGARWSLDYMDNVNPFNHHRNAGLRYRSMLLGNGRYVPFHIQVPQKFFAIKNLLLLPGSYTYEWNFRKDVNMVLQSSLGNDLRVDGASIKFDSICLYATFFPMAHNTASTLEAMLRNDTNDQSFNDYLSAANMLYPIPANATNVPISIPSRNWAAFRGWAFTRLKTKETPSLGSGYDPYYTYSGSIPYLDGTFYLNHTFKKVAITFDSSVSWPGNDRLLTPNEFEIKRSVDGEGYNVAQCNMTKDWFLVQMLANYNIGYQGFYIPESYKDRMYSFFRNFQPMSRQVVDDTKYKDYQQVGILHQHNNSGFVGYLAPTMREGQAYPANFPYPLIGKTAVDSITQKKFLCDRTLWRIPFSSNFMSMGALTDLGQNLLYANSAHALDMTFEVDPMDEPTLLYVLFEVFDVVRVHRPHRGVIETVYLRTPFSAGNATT
Method notes: SPR
Experimental context: both partners purified
Recorded measurements of kon, one per entry

Binder	kon / M⁻¹ s⁻¹
h9C12 Fab T55S (Fab, V domains shown, source: HEK293E, transiently co-transfected, purified (CaptureSelect CH1, SEC Superdex 75)) VH: VQLKQSGPGLLQPSQRLSITCTVSGFSLGRYGVHWIRQSPGKGLEWLGVIWRGGSTDYNAVFMSRLSINKDDSKSQVFFTMNSLRPDDTAIYYCARQGSNFPLAYWGQGTLVTVSA VL: NIVMTQTPKFLLVSIGDSITITCKASQSVTNDAAWYQKKPGQSPQLLIYQASTRYTGVPDRFSGSGYGTDFTFTISAVQAEDLAVYFCHQDYSSPLTFGAGTKLELK	795000
h9C12 Fab (wild type) (Fab, V domains shown, also called WT h9C12; humanized 9C12; source: HEK293E, transiently co-transfected, purified (CaptureSelect CH1, SEC Superdex 75)) VH: VQLKQSGPGLLQPSQRLSITCTVSGFSLGRYGVHWIRQSPGKGLEWLGVIWRGGTTDYNAVFMSRLSINKDDSKSQVFFTMNSLRPDDTAIYYCARQGSNFPLAYWGQGTLVTVSA VL: NIVMTQTPKFLLVSIGDSITITCKASQSVTNDAAWYQKKPGQSPQLLIYQASTRYTGVPDRFSGSGYGTDFTFTISAVQAEDLAVYFCHQDYSSPLTFGAGTKLELK	635000
h9C12 Fab N100A (Fab, V domains shown, source: HEK293E, transiently co-transfected, purified (CaptureSelect CH1, SEC Superdex 75)) VH: VQLKQSGPGLLQPSQRLSITCTVSGFSLGRYGVHWIRQSPGKGLEWLGVIWRGGTTDYNAVFMSRLSINKDDSKSQVFFTMNSLRPDDTAIYYCARQGSAFPLAYWGQGTLVTVSA VL: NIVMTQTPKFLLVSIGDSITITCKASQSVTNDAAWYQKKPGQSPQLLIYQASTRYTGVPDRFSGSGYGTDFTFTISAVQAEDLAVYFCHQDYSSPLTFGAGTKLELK	889000
h9C12 Fab G29R/R30S (Fab, V domains shown, source: HEK293E, transiently co-transfected, purified (CaptureSelect CH1, SEC Superdex 75)) VH: VQLKQSGPGLLQPSQRLSITCTVSGFSLRSYGVHWIRQSPGKGLEWLGVIWRGGTTDYNAVFMSRLSINKDDSKSQVFFTMNSLRPDDTAIYYCARQGSNFPLAYWGQGTLVTVSA VL: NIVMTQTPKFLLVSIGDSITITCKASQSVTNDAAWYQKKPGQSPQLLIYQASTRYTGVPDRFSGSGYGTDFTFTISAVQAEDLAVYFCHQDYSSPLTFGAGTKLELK	53000
